Tested on: Trypanosoma cruzi
Assay: Trypanosoma cruzi phosphomannomutase and mannose-1-phosphate guanylyltransferase assay
Type: functional
Set-up: scale not given: direction of the effect not stated beside the values
Conditions: 10 µM
metric: Percent Effect (%)
One number for each entry, in %.

Here are 3 compounds together with their reported answers.
>>> reportedmeasurement("O=C(c1ccc(O)c(Cl)c1)N1CCC(c2n[nH]c(C3CC3)n2)CC1")
-5.44
>>> reportedmeasurement("Cn1cc(N2CC3(CCN(S(=O)(=O)C4CC4)C3)CC2=O)cn1 (centres undefined)")
3.09
>>> reportedmeasurement("O=C(N1CCOCC1)[C@@]12CCO[C@@H]1CCN(CC1CCCCC1)C2")
-5.3

Now look at this entry.
Asked: Using the record for Cc1ccc2c(n1)N(CCN(C)C)CCN(C(=O)c1ccc[nH]1)C2 , report its Percent Effect.
Given back: -8.07
